SUBJECT OF TEST: T1, Anti-CD28 Fab (SEQ ID NOs: 696, 697)
T1 construct: In the phage ELISA the Fab was biotinylated and captured on neutravidin coated plates
ASSAY DETAILS: phage ELISA; Fab-coated wells pre-incubated with CD28 antigen as competitor, clonal phage supernatant, anti-M13 HRP detection
READOUT NAME: Phage binding ELISA, Anti-CD28 Fab signal in the presence of CD28
Answer with a number only.

> print(dat)
                        binder  assay.value
1  YCDGHAAWYLQKCL [Phage-1297]         0.07
2  YCDGHEPQYMTKCL [Phage-1290]          0.1
3  YCMGHSAEYMGKCL [Phage-1295]         0.06
4  YCEGHAQMYMLKCL [Phage-1298]         0.06
5  YCDGHYGAYILKCL [Phage-1292]         0.06
6  YCDGHAWWYMEKCL [Phage-1296]         0.06
7  YCDGHMDAYMSKCL [Phage-1294]         0.06

Then this binder:
Task: Name the reported Phage binding ELISA, Anti-CD28 Fab signal in the presence of CD28 value associated with the binder YCEGHLPQYLAKCY [Phage-1291]
Output: 0.08
